measurement_notes: Serum and tumor levels after multiple oral doses in male OCI-LY3 tumor-bearing NSG mice
Format: in vivo
condition: male, NSG, mouse, serum, po, once daily PO, dose not given (second group), Day 1, 24 h post dose; mean (SD); read-out: Serum concentration
assay_metric: concentration at 24 h (ng/mL)
Give your result in ng/mL as a bare value.

concentration at 24 h measured on `O=C(Nc1ccnc(C(F)(F)F)c1)c1cnn(-c2cccc3c(=O)[nH]ccc23)c1C(F)(F)F` = 1970

====

measurement_notes: Single IV dose plasma PK
Assay type: in vivo, mouse
condition: male, plasma; Mouse, NSG, 3M, 1 mg/kg IV in 70% PEG400; mean
assay_metric: AUC(0-inf)
Answer as a quantity: numeral, then unit.

AUC(0-inf) measured on O=C(Nc1ccnc(C(F)(F)F)c1)c1cnn(-c2cccc3c(=O)[nH]ccc23)c1C(F)(F)F [Compound A] = 5490 ng·h/mL
